- TARGET UNDER TEST: Luciferin 4-monooxygenase (Photinus pyralis)
- EXPERIMENTAL PROTOCOL: qHTS profiling assay for firefly luciferase inhibitor/activator using purifed enzyme and Km concentrations of substrates (counterscreen for miR-21 project); further: nearly all actives have a fitted effect of over 55% in size
- CONDITION CONTEXT: purified FLuc, luminescence inhibition; series mostly up to 57.5 µM
- Description: MLPCN Grant: 1 R21 NS059478-01 (miR-21 grant) Assay Provider: NCGC NCGC Assay Overview: Firefly (Photinus pyralis) luciferase is one of the most commonly used transcriptional reporters for a number of reasons. […] Although light produced in a bioluminescence reaction is of lower intensity than that produced during fluorescence emission, this is offset by little to no background light inherent to luminescent assays. […]
The whole screen tested about 360,000 compounds, of which about 25,000 (6.9%) were called active. Another 9% or so got no clear call; they are omitted. The call rests on the fitted dose curve; in most records, active means well fitted inhibition curve with a large enough effect; inconclusive means small, poorly fitted or top-dose-only effect; inactive means flat fitted curve, though single readings scatter. The sample as a whole holds a higher share of actives than the screen did.
Please state which outcome applies, choosing from active, inactive

State the result this test recorded for Cc1nc2ccc(NC(=O)C(F)(F)F)cc2o1 .
inactive

----------
- TARGET UNDER TEST: Luciferin 4-monooxygenase (Photinus pyralis)
- EXPERIMENTAL PROTOCOL: qHTS profiling assay for firefly luciferase inhibitor/activator using purifed enzyme and Km concentrations of substrates (counterscreen for miR-21 project); further: nearly all actives have a fitted effect of over 55% in size
- CONDITION CONTEXT: purified FLuc, luminescence inhibition; series mostly up to 57.5 µM
The campaign covered roughly 360,000 compounds. About 25,000 (6.9%) were called active. Not shown: some 9% with an inconclusive outcome. Calls follow the shape of the dose curve; as a rule, active = well fitted inhibition curve with a large enough effect; inconclusive = small, poorly fitted or top-dose-only effect; inactive = flat fitted curve, though single readings scatter. Only a selection was taken, and actives are over-represented in it overall.
Please state which outcome applies, choosing from yes (1) for active, no (0) for inactive

Solved cases below.
{"columns": ["MOLECULE", "CLASS ASSIGNMENT"],
 "data": [
  ["CC1CCCCN1CC(=O)N1CCCc2c1c(=O)oc1ccc(OCc3ccccc3)cc21 (stereo unspecified)", "no (0)"],
  ["C/C(=N\\NC(=O)c1ccoc1C)c1ccccc1O", "yes (1)"],
  ["O=C(Nc1nc(-c2cccnc2)cs1)c1ccccc1F", "no (0)"],
  ["CC(=O)Nc1cccc(-c2cnc3ccccc3n2)c1", "yes (1)"],
  ["c1csc(-c2cn3c(n2)SCC3)c1", "no (0)"],
  ["COc1cccc(CNCCSc2nnnn2C)c1OCc1ccccc1Cl", "no (0)"],
  ["C/C(=N\\Nc1cccc(C(=O)O)c1)c1ccc2c(c1)Nc1ccccc1S2", "yes (1)"],
  ["COC(=O)c1ccc(NC(=S)Nc2cccc(C)n2)cc1", "no (0)"]
]}

State the result this test recorded for CC(=O)Nc1cccc(/C(C)=N/NC(=O)c2c(-c3ccccc3Cl)noc2C)c1 .
no (0)

State the result this test recorded for O=C(C1CCC1)N1CCN(S(=O)(=O)c2ccc([N+](=O)[O-])cc2)CC1 .
no (0)

State the result this test recorded for CC(=O)Nc1cccc(-c2csc(Nc3cccc(C)n3)n2)c1 .
yes (1)

----------
- TARGET UNDER TEST: Luciferin 4-monooxygenase (Photinus pyralis)
- EXPERIMENTAL PROTOCOL: qHTS profiling assay for firefly luciferase inhibitor/activator using purifed enzyme and Km concentrations of substrates (counterscreen for miR-21 project); further: nearly all actives have a fitted effect of over 55% in size
- CONDITION CONTEXT: purified FLuc, luminescence inhibition; series mostly up to 57.5 µM
Among all 360,000 compounds or so, about 25,000 (6.9%) were called active. Inconclusive results (about 9%) are left out. The call rests on the fitted dose curve; in most records, active means well fitted inhibition curve with a large enough effect; inconclusive means small, poorly fitted or top-dose-only effect; inactive means flat fitted curve, though single readings scatter. The list comes from a sample in which actives are over-represented; it also holds close analogues and randomly drawn compounds.
Please state which outcome applies, choosing from 1 = active, 0 = inactive

Solved cases below.
{"columns": ["MOLECULE", "CLASS ASSIGNMENT"],
 "data": [
  ["NS(=O)(=O)c1cccc(NC(=O)COC(=O)/C=C/c2ccco2)c1", 0],
  ["CC(C)Oc1ccc(/C=C(\\NC(=O)/C=C/c2ccco2)C(=O)NCCc2nc3ccccc3[nH]2)cc1", 0],
  ["CCOC(=O)C1(Cc2ccccc2C)CCCN(S(C)(=O)=O)C1 (stereo not given)", 0],
  ["CN(c1ccccc1)S(=O)(=O)c1cc(C(=O)Nc2nc3ccccc3[nH]2)ccc1Cl", 0],
  ["N#Cc1ccccc1NC(=O)c1cccc(COc2ccc(Cl)cc2Cl)c1", 1],
  ["CCOC(=O)C1(Cc2ccccc2C)CCCN(C(=O)CN2C(=O)CSC2=O)C1 (stereo not given)", 0]
]}

State the result this test recorded for CCOc1ccc(NC(=O)CN(C)C(=O)CCSc2ccc(F)cc2)cc1OCC .
0

State the result this test recorded for Cc1ccc(OCC(=O)Nc2ccc(Cl)c(-c3nc4ccccc4[nH]3)c2)cc1C .
0

State the result this test recorded for Cc1ccc(-n2nc3ccc(NC(=O)/C=C/c4ccco4)cc3n2)cc1C .
1

State the result this test recorded for CSc1ccc(C#N)cc1NC(=O)c1cccc(Cl)c1 .
0

# credit: PubChem BioAssay AID588342
